- SUBJECT_OF_TEST: hOX1R (Homo sapiens, UniProt O43613)
- Sequence (O43613 1-425): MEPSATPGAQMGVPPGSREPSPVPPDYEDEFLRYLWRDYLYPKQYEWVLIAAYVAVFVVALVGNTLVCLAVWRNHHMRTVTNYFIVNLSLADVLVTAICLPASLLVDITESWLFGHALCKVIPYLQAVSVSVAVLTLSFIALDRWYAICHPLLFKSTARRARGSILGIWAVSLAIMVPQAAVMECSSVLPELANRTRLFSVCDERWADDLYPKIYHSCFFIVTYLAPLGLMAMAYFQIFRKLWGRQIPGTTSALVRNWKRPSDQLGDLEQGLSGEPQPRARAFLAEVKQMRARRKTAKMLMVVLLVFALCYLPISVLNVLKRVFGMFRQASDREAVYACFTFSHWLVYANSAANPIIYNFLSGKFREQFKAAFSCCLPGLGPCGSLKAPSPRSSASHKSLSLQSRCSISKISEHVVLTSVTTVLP
- PROTOCOL_DESCRIPTION: FLIPR Ca2+ Flux Assay, CHO cells expressing the orexin-1 receptor
- PARTICULARS: agonist 70 pM Ala-6,12 human orexin-A
pIC50: −log10 of the molar value.
PARAMETER: pIC50

Previously resolved entries follow.
COMPOUND	SUBJECT_OF_TEST	pIC50
Cc1ccnc(O[C@@H]2CC[C@@H](C)N(C(=O)c3cc(F)ccc3-n3nccn3)C2)c1 [Example 11]	hOX1R (Homo sapiens, UniProt O43613)	5.98
Cc1ccnc(O[C@@H]2CC[C@@H](C)N(C(=O)c3ccsc3-c3ncccn3)C2)c1 [Example 21]	hOX1R (Homo sapiens, UniProt O43613)	5.67

(I) Cc1ccnc(O[C@@H]2CC[C@@H](C)N(C(=O)c3cccnc3-n3cc(C)cn3)C2)c1 [Example 17]
(II) Cc1ccnc(O[C@@H]2CC[C@@H](C)N(C(=O)c3sccc3-c3ncccn3)C2)c1 [Example 22]
Exercise: Between I and II , whose measured pIC50 reads higher? Output the label that corresponds to your choice.
Key: II
(II: 6.10, I: 5.76)
